target_or_test_system: UniProt P9WHJ3
procedure_text: Fluorescence Cell-Free Homogeneous Dose Retest to Identify Inhibitors of RecA-Intein Splicing Activity. [Related pubchem assays (depositor defined):AID2097, AID2223, AID489010, AID492950]
Assay type: functional
Activity calls are given as the source filed them.
Labels: Yes (active), No (inactive)

N#C/C(=C/c1ccncc1)c1nc2ccccc2s1 :: Yes
COC(=O)C1=NN(C(C)=O)C2(CC(=O)N(c3cc(C)cc(C)c3)C2=O)C1 (stereo unspecified) :: No
CC1=C(CC(=O)c2ccccc2)C(=O)c2ccccc2C1=O :: Yes
COc1ccc(S(=O)(=O)/N=C2\C=C(Nc3ccc(O)cc3)C(=O)c3ccccc32)cc1 :: Yes
COCc1n[nH]c2c1C(c1cccc(OC)c1)C(C#N)=C(N)O2 (stereo unspecified) :: Yes
CC(C)(C)c1ccc(C(=O)Cn2cnnc2C#N)cc1 :: Yes
Cc1[nH][nH]c(=O)c1C(c1cc([N+](=O)[O-])ccc1O)c1c(C)[nH][nH]c1=O :: Yes
CCOc1cc(NC2CS(=O)(=O)CC2O)c(OCC)cc1NC(=O)c1ccccc1 (stereo unspecified) :: No
Cc1ccc(C(=O)NC(=S)NNS(=O)(=O)c2ccc(C)cc2)cc1 :: Yes
COc1ccc(C2C(C#N)=C(N)Oc3c2c(C)nn3-c2ccccc2)cc1Cn1nc(C)c([N+](=O)[O-])c1C (stereo unspecified) :: Yes
N#CC1=C(N)Oc2[nH]nc(-c3cccs3)c2C1c1ccco1 (stereo unspecified) :: Yes
COc1ccc(NC(=O)c2cccc(N3C(=O)C4C5C=CC(C5)C4C3=O)c2)cc1Cl (stereo unspecified) :: Yes
Cc1cccc(C)c1-n1cccc1/C=C1\SC(=S)N(c2cccc(C(=O)O)c2)C1=O :: Yes
COc1ccc(CN(CCC(c2ccccc2)c2ccc(OC(C)C)cc2)C(=O)CCl)cc1OC (stereo unspecified) :: Yes
CS(=O)(=O)N1CCC(Oc2ccccc2C(=O)N2CCCCC2CO)CC1 (stereo unspecified) :: No
O=C(Nc1nc(-c2ccccc2)cs1)c1ccccc1NS(=O)(=O)c1ccc(F)cc1 :: Yes
Cc1sc(NC(=O)CSC2=NCCS2)nc1-c1ccccc1 :: Yes
N#CC1=C(N)C(C#N)(C#N)[C@H](c2c(F)cccc2F)[C@H]2CC3(CC=C12)OCCO3 :: Yes
C/C(CC(=O)Nc1cc(C)ccn1)=N\NC(=O)c1ccc(C)cc1 :: Yes

====

Listing: IC50 of selected molecules
target_or_test_system: UniProt:Q92731
Sequence (Q92731 whole entry): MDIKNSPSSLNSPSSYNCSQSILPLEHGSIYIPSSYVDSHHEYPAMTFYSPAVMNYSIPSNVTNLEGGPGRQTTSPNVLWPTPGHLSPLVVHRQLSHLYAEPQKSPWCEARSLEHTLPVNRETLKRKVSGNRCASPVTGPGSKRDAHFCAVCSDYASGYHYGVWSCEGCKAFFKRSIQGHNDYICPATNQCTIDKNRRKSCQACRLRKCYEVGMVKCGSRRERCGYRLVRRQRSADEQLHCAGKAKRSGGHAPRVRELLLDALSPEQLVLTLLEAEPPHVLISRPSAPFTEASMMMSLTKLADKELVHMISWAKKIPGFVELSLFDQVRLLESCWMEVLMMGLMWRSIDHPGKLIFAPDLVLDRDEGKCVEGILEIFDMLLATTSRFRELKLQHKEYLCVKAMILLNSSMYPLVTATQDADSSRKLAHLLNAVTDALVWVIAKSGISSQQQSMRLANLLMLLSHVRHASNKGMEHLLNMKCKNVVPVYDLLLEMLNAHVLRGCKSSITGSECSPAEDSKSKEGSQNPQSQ
procedure_text: ERβ–SRC-3 coactivator interaction inhibitors, confirmation, orthogonal assay, biochemical, ELISA, streptavidin-HRP readout (AID 1060)
reported_property: IC50

CN(C)CCN1CCc2ccccc21 :: 0.0579 µM (not active)
CCOc1ccccc1N1CCN(S(=O)(=O)c2ccc3c4c(cccc24)C(=O)N3)CC1 :: 9.19 µM (not active)
CCN1CCc2c(sc(N)c2C#N)C1 :: 6.55 µM (not active)
CCN(c1ccccc1)S(=O)(=O)c1cc(C(=O)O)ccc1C :: 1.83 µM (not active)

====

target_or_test_system: Endoribonuclease toxin MazF (Escherichia coli K-12, UniProt P0AE70)
Sequence (P0AE70 whole entry): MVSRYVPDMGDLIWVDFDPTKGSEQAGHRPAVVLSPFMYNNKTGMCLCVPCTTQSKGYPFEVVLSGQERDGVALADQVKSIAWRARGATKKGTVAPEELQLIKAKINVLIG
procedure_text: MazF toxin RNase activators, dose response, biochemical, fluorescence, single-stranded RNA substrate, uHTS hits (AID 588481)
Assay type: functional
Active and inactive are the calls of the source. Bridge positions count the residues as written; N and C are the ends. Square brackets hold non-standard residues; d marks the D form. Peptide text beside a SMILES is read from it. * marks the point of attachment. X1 = CCC(C)C(N)C1=NC(C(=O)*)CS1; dOrn = NCCC[C@@H](N)C(=O)O
reported_property: EC50

O=c1[nH]nc(CNc2ccc(O)cc2)c2ccccc12 :: > 99 µM (inactive)
O=C(N=CNOCc1ccc(Cl)cc1Cl)NOCc1c(Cl)cccc1Cl :: > 99 µM (inactive)
CCC(C)C(N)C1=NC(C(=O)N[C@@H](CC(C)C)C(=O)N[C@H](CCC(=O)O)C(=O)N[C@H](C(=O)N[C@H]2CCCCNC(=O)[C@H](CC(N)=O)NC(=O)[C@@H](CC(=O)O)NC(=O)[C@H](Cc3c[nH]cn3)NC(=O)[C@@H](Cc3ccccc3)NC(=O)[C@H]([C@@H](C)CC)NC(=O)[C@@H](CCCN)NC2=O)[C@@H](C)CC)CS1 (some centres undefined) (X1-L[dE]IK[dOrn]I[dF]H[dD]N; lactam 4-C) :: 30.8 µM (inactive)
CCOc1ccc(/N=C/C=C(/O)c2ccc(OC)cc2)c([N+](=O)[O-])c1 :: > 99 µM (inactive)

====

target_or_test_system: Microphthalmia-associated transcription factor (Homo sapiens)
Sequence (O75030 whole entry): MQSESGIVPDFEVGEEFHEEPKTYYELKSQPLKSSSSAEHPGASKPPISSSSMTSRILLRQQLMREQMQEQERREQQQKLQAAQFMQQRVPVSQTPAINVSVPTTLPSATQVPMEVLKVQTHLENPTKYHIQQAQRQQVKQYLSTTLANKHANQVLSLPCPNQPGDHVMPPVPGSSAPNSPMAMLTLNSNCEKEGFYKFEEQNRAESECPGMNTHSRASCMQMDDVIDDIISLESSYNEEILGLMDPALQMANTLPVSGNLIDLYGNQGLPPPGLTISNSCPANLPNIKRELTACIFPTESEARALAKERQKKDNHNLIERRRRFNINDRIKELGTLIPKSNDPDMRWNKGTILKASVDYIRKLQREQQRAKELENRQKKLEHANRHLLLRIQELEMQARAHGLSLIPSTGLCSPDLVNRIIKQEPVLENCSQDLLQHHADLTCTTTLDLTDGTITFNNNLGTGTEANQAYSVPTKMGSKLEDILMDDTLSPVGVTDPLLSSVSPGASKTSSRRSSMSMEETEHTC
procedure_text: TRPM1 promoter luciferase signal decrease, dose response, MITF inhibitor project, cell-based, SK-MEL-5, cherry-picked, set 3 (AID 493073);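 also: SK-MEL-5 melanoma cells with luciferase driven by the MITF target TRPM1 promoter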
Type: functional
Active and inactive are the calls of the source.
reported_property: AC50

CC(C)(C)c1ccc(C(=O)N2CCCCCC2=O)cc1 :: 1.12 µM (active)
CC1=C(CC(=O)c2ccccc2)C(=O)c2ccccc2C1=O :: 7.15 µM (active)
CCc1ccc(-c2cc(C(=O)Nn3cnnc3)c3ccccc3n2)cc1 :: 12.5 µM (active)
Cc1ccc(-c2cn3cc(C)ccc3n2)cc1 :: 2.03 µM (active)

====

Listing: EC50 of selected compounds
procedure_text: cytotoxicity toward NIH3T3 fibroblasts, dose response, counter-screen, cell-based, ATP luminescence, mouse fibroblasts (AID 2010);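 also: cells exposed to compound for about 90 hours before reading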
Type: functional
Active and inactive are the calls of the source.
reported_property: EC50

Cc1c(C(=O)Nc2nc3ccccc3[nH]2)oc2c(Cl)cccc12 :: > 60 µM (not active)
O=C(Nc1ccccc1C(=O)Nc1nnc(C(F)(F)F)s1)c1ccccc1 :: 2.53 µM (active)
CC(C)c1ccccc1OCC(O)CN1CCN(S(=O)(=O)c2ccc([N+](=O)[O-])cc2)CC1 (configuration not stated) :: > 60 µM (not active)
O=C(C1=C[C@H](c2ccc(Br)cc2)C[C@H](OCCCCO)O1)N1CCN(Cc2ccccc2)CC1 :: > 60 µM (not active)
Cc1ccsc1C(=O)C1CCCN(Cc2c(C)nn(C(C)C)c2C)C1 (configuration not stated) :: > 60 µM (not active)
Cc1ccc(NP(=O)(c2ccc(N(C)C)cc2NC(=O)c2cccs2)N2CCOCC2)cc1Cl (configuration not stated) :: > 30 µM (not active)
COc1ccc(C)cc1NC(=O)CN1CCN(S(=O)(=O)c2ccc(C(C)C)cc2)CC1 :: > 30 µM (not active)

====

# collection of AC50 values tested on Cytochrome P450 3A4 (Homo sapiens, UniProt P08684);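 also: CYP3A4 tested as one member of a cytochrome P450 panel screen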
# Sequence (P08684 whole entry): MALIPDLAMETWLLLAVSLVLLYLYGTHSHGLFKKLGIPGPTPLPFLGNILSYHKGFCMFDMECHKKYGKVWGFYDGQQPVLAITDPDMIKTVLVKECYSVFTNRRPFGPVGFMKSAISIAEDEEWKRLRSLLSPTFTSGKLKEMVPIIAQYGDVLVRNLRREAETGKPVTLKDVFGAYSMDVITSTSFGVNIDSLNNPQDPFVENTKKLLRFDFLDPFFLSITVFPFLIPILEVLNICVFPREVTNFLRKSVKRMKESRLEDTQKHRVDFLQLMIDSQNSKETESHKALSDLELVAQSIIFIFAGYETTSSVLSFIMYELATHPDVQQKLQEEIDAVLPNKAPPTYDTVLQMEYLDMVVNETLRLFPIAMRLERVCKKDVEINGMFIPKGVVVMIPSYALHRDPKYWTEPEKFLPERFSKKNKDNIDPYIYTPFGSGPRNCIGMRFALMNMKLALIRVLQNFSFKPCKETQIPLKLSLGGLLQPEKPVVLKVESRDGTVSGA
reported_property: AC50

COc1ccccc1C1CC(c2c(O)nc3ccc(Cl)cc3c2-c2ccccc2)=NN1S(C)(=O)=O (stereo not drawn) :: 39.8 µM (inconclusive)
COc1ccc(C2SCC(=O)Nc3c2c(C)nn3-c2ccccc2)cc1OC (stereo not drawn) :: 12.6 µM (inconclusive)
CCOc1ccc(-c2nnc(-c3ccncc3)o2)cc1 :: 1.58 µM (inconclusive)
Cc1onc(-c2ccccc2)c1C(=O)NC(CC(=O)O)c1ccc(OC(C)C)cc1 (stereo not drawn) :: 28.2 µM (inconclusive)
CC(C)(C)CC(C)(C)c1ccc(O)c(C[N+](C)(C)[O-])c1 :: 5.01 µM (inconclusive)
Fc1ccc(-c2csc(N3CCC(c4ccccc4)C3)n2)cc1 (stereo not drawn) :: 28.2 µM (inconclusive)
CNC(=O)c1cc2c(cn1)[nH]c1ccccc12 :: 39.8 µM (inconclusive)
C(=N\n1cnnc1)/c1cccn1-c1ccccc1 :: 39.8 µM (inconclusive)
CCCCNc1nc(SC)nc2[nH]cnc12 :: 3.16 µM (inconclusive)
Cc1ccc(NC(=S)N2CCN(C3CCCCC3)CC2)cc1 :: 10 µM (inconclusive)
Cc1cc(C)c(C(N)=O)c(SCC(=O)c2ccc(Cl)cc2)n1 :: 31.6 µM (inconclusive)
CCNc1ncc2nc(-c3cccc(C#N)c3)c(=O)n(CCC#N)c2n1 :: 7.94 µM (inconclusive)
CC(C)CN1CCCC2(CCN(C(=O)c3ccco3)CC2)C1 :: 31.6 µM (inconclusive)
CC(C)=NOCc1cccc(-c2cc(-c3ccccc3)no2)c1 :: 6.31 µM (inconclusive)
C(=C/c1ccccc1)/C=N/c1ccc2c(c1)Cc1ccccc1-2 :: 3.98 µM (inconclusive)
CCOC(=O)c1c(C)n(C)c2ccc(OC)c(NC(=O)CN3CCCCC3)c12 :: 14.1 µM (inconclusive)
CCCCN(C(S)=Nc1ccccc1)C1CCS(=O)(=O)C1 (stereo not drawn) :: 22.4 µM (inconclusive)
COCCn1c(=O)c(-c2ccc(Cl)cc2)nc2cncnc21 :: 12.6 µM (inconclusive)
